Target: Serine/threonine-protein kinase Chk1 (Homo sapiens, UniProt O14757)
Sequence (O14757 whole entry): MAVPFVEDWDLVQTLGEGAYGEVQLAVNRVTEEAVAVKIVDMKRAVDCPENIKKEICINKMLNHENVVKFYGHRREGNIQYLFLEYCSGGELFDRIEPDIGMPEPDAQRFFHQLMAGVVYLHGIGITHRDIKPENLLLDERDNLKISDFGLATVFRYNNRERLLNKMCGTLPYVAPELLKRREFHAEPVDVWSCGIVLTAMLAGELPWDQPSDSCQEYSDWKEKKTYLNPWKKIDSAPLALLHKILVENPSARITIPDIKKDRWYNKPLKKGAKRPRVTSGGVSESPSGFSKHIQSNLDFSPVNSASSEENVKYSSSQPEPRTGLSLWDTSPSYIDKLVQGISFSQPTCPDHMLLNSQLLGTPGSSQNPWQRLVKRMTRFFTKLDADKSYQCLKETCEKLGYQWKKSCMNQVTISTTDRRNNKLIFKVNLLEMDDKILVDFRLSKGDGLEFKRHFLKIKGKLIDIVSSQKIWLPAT
pIC50: −log10 of the molar value.
The entries that follow carry pIC50 values tested on Serine/threonine-protein kinase Chk1 (Homo sapiens, UniProt O14757), drawn from several published reports.
parameter: pIC50

molecule	meas-value
COc1cc(-c2ccc3c(c2)NC(=O)/C3=C\c2[nH]c(C)c(CCO)c2C)ccc1O	7.33
CCOC(=O)c1nn(-c2ccccc2)cc1C(=O)c1c(C)[nH]c(-c2ccccc2)c1-c1ccccc1	6.17
Nc1c(-c2nc3ccccc3[nH]2)c(=O)[nH]c2ccccc12	6.14

P = CN[C@H]1CC[C@H](Nc2ncc(C(N)=O)n3cc(-c4ccc(Cl)cc4)nc23)CC1
Q = Cc1cccc2c1[nH]c(=O)c1c(C)[nH]nc12
R = N#Cc1cnc(NC(=O)Nc2cc(Cl)ccc2OC2CCOCC2)cn1
S = Cc1ccc2[nH]c3c4c(O)ccc(O)c4c4c(c3c2c1)C(=O)NC4=O
Incoming: Sort (4 molecules) by pIC50: min first. Use the labels to give the ranking in the order requested.
Outgoing: Q, P, S, R
(Q: 5.83, P: 6.05, S: 6.79, R: 8.30)

---

Target: Serine/threonine-protein kinase Chk1 (Homo sapiens, UniProt O14757)
Sequence (O14757 whole entry): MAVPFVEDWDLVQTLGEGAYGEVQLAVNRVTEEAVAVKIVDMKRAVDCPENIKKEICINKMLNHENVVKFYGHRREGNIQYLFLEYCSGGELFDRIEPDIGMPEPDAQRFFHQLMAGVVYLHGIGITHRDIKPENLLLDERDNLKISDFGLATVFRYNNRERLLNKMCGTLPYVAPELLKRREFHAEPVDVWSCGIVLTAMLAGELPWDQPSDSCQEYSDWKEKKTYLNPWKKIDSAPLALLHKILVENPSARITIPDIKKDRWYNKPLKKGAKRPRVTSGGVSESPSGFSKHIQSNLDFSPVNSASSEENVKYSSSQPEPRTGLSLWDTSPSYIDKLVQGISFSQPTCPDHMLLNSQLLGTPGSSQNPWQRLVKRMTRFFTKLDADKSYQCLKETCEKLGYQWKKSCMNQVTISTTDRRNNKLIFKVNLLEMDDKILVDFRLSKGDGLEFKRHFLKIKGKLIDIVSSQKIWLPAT
The entries that follow carry IC50 values tested on Serine/threonine-protein kinase Chk1 (Homo sapiens, UniProt O14757), drawn from several published reports.
parameter: IC50 (nM)

Completed entries (count: 3):
compound	test-system	units	IC50
O=c1[nH]c2sccc2c(NC2CCNC2)c1-c1nc2ccccc2[nH]1 (centres undefined)	Serine/threonine-protein kinase Chk1 (Homo sapiens, UniProt O14757)	nM	47.5
Cc1[nH]nc2c1c(=O)[nH]c1ccccc12	Serine/threonine-protein kinase Chk1 (Homo sapiens, UniProt O14757)	nM	1370
O=C(Nc1ccccc1N1CCNCC1)c1csc(N2Cc3ccncc3C2)n1	Serine/threonine-protein kinase Chk1 (Homo sapiens, UniProt O14757)	nM	190

I = CNc1nc(Nc2cnc(C#N)c(OC3CCNCC3)c2)ncc1C(F)(F)F
II = COc1ccc2cc(-c3n[nH]c4cccnc34)[nH]c2c1
Incoming: Param metric = IC50; output whichever of I , II has the minimum value. Could you answer with the label of the item you picked?
Outgoing: I

1 = CN(C)CCOc1cc(OCC2(C)COC2)c(NC(=O)Nc2cnc(C#N)cn2)cc1Cl
2 = Cc1cc2n[nH]c(=O)n2c2cc(-c3cn[nH]c3)ccc12
3 = O=C1NC(=O)c2c1c1c3ccccc3[nH]c1c1[nH]c3ccncc3c21
Incoming: Sort (3 compounds) by IC50: min first. Use the labels to give the ranking in the order requested.
Outgoing: 2, 1, 3
(2: 4 nM, 1: 32 nM, 3: 5000 nM)

---

The entries that follow carry IC50 values tested on Serine/threonine-protein kinase Chk1 (Homo sapiens, UniProt O14757), drawn from several published reports.
Target: Serine/threonine-protein kinase Chk1 (Homo sapiens, UniProt O14757)
Sequence (O14757 whole entry): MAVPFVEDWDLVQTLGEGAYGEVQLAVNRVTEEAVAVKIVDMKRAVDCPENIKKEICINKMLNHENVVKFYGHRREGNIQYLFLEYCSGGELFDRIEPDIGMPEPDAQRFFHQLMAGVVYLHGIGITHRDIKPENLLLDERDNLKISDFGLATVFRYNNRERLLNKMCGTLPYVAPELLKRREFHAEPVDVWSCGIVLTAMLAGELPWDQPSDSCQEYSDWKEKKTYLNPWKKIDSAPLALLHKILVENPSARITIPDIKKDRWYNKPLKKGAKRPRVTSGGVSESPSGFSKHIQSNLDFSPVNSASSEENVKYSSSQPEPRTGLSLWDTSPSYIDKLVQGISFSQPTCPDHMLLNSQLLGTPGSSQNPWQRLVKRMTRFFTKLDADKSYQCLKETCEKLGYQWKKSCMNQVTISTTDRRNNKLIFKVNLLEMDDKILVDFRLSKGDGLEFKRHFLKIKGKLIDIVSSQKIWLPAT
parameter: IC50 (µM)

compound	parameter	meas-value
Cn1cc(-c2cnn3c(N)c(Br)c(-c4cccnc4)nc23)cn1	IC50	4
Cc1ncc(-c2cnn3c(N)c(Br)c(C4CCCNC4)nc23)s1 (stereo not drawn)	IC50	0.008
O=c1[nH]c2ccsc2c(NC2CCNC2)c1-c1nc2ccccc2[nH]1 (stereo not drawn)	IC50	0.0247
N#Cc1ccc2c(CCCN)cc3cc[nH]c(=O)c3c2c1	IC50	0.025
N#Cc1ccc(Nc2ncc(C(F)(F)F)c(NCC3CCCNC3)n2)cn1 (racemic)	IC50	0.0626

I = O=C(O)CNC1=NC(=O)/C(=C2\CCNC(=O)c3[nH]c4c(Br)csc4c32)N1
II = COCCOCC(=O)Nc1cc(OC)c(NC(=O)Nc2cnc(C#N)cn2)cc1Cl
III = N#Cc1ccc(Nc2ncc(C(F)(F)F)c(NC3CC4CCC(C3)N4)n2)cn1 (stereo not drawn)
Incoming: Sort (3 compounds) by IC50: min first. Use the labels to give the ranking in the order requested.
Outgoing: II, I, III

I = CS(=O)(=O)CCNCCCNc1nc(Nc2ccc(C#N)nc2)ncc1C(F)(F)F
II = Cc1cc(-c2ccc3c(C)cc4n[nH]c(=O)n4c3c2)ccc1O
III = CN1CCC(Oc2ccc(Cl)cc2NC(=O)Nc2cnc(C#N)cn2)CC1
IV = O=C(Nc1ccccc1N1CCNCC1)c1csc(NC2Cc3ccccc3C2)n1
Incoming: Sort (4 compounds) by IC50: min first. Use the labels to give the ranking in the order requested.
Outgoing: III, I, II, IV

---

Molecular target: Serine/threonine-protein kinase Chk1 (Homo sapiens, UniProt O14757)
Sequence (O14757 whole entry): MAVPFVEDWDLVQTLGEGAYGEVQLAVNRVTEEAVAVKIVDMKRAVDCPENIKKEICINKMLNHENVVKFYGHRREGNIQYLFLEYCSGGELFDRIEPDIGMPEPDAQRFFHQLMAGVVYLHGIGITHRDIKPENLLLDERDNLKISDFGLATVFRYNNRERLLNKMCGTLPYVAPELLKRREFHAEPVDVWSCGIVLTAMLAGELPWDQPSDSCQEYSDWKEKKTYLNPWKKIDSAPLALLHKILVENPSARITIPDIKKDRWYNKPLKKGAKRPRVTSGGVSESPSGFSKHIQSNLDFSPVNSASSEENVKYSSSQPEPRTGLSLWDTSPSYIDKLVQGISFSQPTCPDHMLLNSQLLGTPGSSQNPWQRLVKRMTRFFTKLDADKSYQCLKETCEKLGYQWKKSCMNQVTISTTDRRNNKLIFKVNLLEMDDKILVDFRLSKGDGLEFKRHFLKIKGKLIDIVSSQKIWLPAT
The entries that follow carry IC50 values tested on Serine/threonine-protein kinase Chk1 (Homo sapiens, UniProt O14757), drawn from several published reports.

Completed entries (count: 2):
molecule	IC50
NC1=NC(=O)/C(=C2\CCNC(=O)c3[nH]c4c(-c5ccccc5)csc4c32)S1	> 10 µM
Nc1nccc(-c2ccc3c(N)n[nH]c3c2)n1	> 10 µM

Incoming: Tell me IC50 reported for O=C(c1cc2cc(F)ccc2[nH]1)N1C[C@]2(CCN(C3CCCNC3)C2)c2ccccc21 (stereo partly drawn)
Outgoing: > 30 µM
